system: AncSZ; experiment: phosphorylation enrichment, bacterial display (enrichment ratio); higher = better substrate or ligand; peptides without Tyr show the background;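 also: 11-residue human phosphosite peptides and single-mutation variants displayed on the E. coli surface, counted by deep sequencing, each peptide's frequency after selection divided by its frequency in the unselected input library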;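 also: frequency after pTyr selection over input frequency; kinase dosed for 20-30% of maximal phosphorylation in three min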
Lab note: anything with phosphorylation enrichment at or over 1 counts as YES; the rest go in NO.

VFSTDYFRVGG [NTRK2_Y706_YF] = YES
SYSGEYGSGGG [ZG16_Y30_G32S] = NO
VIVRMYDFHVL [RPF2_Y109_G106V_YF] = YES
TACNPYKPPGP = NO
YDGKEYDPVEA [MAPRE2_Y167] = YES
SPLTDYSPQLQ [OTC_Y345_L341P] = NO
QDEHGYISWCF [HSPB1_Y133_R136W] = YES
CGTPTCLAPEV [CHEK2_Y390_Y390C] = YES
LFNQDYPIHCV [GATM_Y227_S231C_YF] = YES
MCITRYERESQ [PRNP_Y218_Q217R] = YES
LPEHPYHSRPR [NDUFA8_Y142_N140H] = YES
NFNPNYCFAGK [ALK_Y1096_D1091N_YF] = YES
FGSRLYKFAFK [FANCD2_Y458_L456R_YF] = NO
MDNQEYKDAFT [BRDT_Y331_K336T_YF] = YES
FGAHNHHPLPV [OAT_Y55_Y55H_YF] = NO
ILILKYPIEHG [ACTA1_Y71_T68I] = YES
FEEVVYQAMEE [TACC3_Y684] = YES
VTNHIYTWVDP [DFNB31_Y234] = YES
